- target_desc: IGFR kinase (Homo sapiens, UniProt P08069)
- Construct: purchased Millipore
- Sequence (P08069 31-1367): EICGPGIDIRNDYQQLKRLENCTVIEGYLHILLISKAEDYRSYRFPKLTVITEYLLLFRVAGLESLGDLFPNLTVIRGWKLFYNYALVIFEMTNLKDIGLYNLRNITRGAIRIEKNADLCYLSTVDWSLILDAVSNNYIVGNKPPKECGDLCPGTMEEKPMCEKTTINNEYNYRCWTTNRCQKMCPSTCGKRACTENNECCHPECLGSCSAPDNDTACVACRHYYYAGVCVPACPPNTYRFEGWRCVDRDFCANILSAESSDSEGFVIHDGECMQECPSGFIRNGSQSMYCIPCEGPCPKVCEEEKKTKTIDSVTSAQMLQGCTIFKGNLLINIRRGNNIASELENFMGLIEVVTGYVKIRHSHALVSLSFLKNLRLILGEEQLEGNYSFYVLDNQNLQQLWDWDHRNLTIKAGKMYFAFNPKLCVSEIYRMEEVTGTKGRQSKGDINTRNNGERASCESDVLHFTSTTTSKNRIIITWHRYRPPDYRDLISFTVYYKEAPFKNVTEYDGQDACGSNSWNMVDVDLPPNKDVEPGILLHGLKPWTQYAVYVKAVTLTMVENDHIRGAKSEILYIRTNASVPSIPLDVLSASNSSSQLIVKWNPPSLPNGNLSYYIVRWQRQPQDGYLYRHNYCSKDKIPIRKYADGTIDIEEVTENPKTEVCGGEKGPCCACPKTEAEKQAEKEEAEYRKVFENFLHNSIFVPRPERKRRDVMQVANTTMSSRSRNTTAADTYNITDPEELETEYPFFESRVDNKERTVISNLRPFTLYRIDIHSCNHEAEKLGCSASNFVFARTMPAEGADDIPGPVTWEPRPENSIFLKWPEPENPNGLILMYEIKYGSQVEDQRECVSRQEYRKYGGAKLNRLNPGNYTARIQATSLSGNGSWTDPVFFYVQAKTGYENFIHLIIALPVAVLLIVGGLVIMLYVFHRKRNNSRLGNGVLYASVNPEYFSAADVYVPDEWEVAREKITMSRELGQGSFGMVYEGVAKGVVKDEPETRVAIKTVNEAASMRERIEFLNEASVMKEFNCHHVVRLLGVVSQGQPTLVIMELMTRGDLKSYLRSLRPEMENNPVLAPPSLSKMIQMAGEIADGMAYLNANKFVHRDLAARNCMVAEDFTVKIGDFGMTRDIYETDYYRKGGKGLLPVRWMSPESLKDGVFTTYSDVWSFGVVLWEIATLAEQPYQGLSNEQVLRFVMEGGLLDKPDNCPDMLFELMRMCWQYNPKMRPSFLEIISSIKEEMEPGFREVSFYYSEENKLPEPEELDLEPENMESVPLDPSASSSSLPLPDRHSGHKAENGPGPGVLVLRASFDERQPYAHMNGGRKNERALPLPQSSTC
- measurement_description: Enzyme assay (c), IGFR kinase, Caliper LabChip
- Format: biochemical
- measurement_context: 30 nM IGFR kinase, 6 uM ATP, 3 uM peptide mix; read-out: IGFR IC50
The following compounds are shown together with reported IC50 values.
measurement_kind: IC50 (nM)

>>> result("COc1cc(N2CCN(C(C)(C)CO)CC2)ccc1Nc1ncc(Cl)c(-c2cnc3ccc(F)cn23)n1")
4
>>> result("COc1cc(OC[C@@H]2CCCN2)ccc1Nc1ncc(Cl)c(-c2cnc3ccccn23)n1")
14
>>> result("COc1cc(N2CCN(CCO)CC2)ccc1Nc1ncc(Cl)c(-c2cnc3c(F)cccn23)n1")
15
>>> result("COc1cc(C2CCCN(C(C)=O)C2)ccc1Nc1ncc(Cl)c(-c2cnc3ccccn23)n1 (centres unmarked)")
6
>>> result("COc1cc(N2CCN(C(C)=O)CC2)c(C)cc1Nc1ncc(Cl)c(-c2cnc3ccccn23)n1")
8
>>> result("COc1cc(N(C)CCN(C)C(=O)CO)ccc1Nc1ncc(Cl)c(-c2cnc3c(F)cccn23)n1")
5
>>> result("COc1cc(N(CCO)CCO)ccc1Nc1ncc(Cl)c(-c2cnc3c(F)cccn23)n1")
6
>>> result("COc1cc(N(C)CCN(C)CCO)ccc1Nc1ncc(Cl)c(-c2cnc3c(F)cccn23)n1")
10
